protocol_text: BSK_3C_VCAM1: BioMAP Diversity Plus: 3C Assay for Vascular cell adhesion molecule 1 (VCAM1) Biomarker Activity (AID 2282999)
setup_conditions: BioMAP 3C HUVEC, VCAM1 ELISA, cytokine-stimulated; actives raise or lower the signal
Calls of active or inactive are those of the source. How the source made its calls: active means hit-call score of the fitted dose curve at least 0.9, where 1 is the maximum; inactive means score below 0.9.
Possible outcomes: active, inactive

[
  {
    "molecule": "O=S(=O)(O)C(F)(F)C(F)(F)C(F)(F)C(F)(F)C(F)(F)C(F)(F)C(F)(F)C(F)(F)F",
    "group": "inactive"
  },
  {
    "molecule": "COC(=O)c1ccccc1S(=O)(=O)NC(=O)Nc1nc(C)nc(OC)n1",
    "group": "inactive"
  },
  {
    "molecule": "CC1(C)C(C=C(Cl)Cl)C1C(=O)OC(C#N)c1ccc(F)c(Oc2ccccc2)c1 (stereo unspecified)",
    "group": "inactive"
  },
  {
    "molecule": "O=[N+]([O-])c1c(Cl)c(Cl)c(Cl)c(Cl)c1Cl",
    "group": "active"
  },
  {
    "molecule": "CNC(=O)CSP(=S)(OC)OC",
    "group": "inactive"
  },
  {
    "molecule": "CC(C)N(C(=O)COc1nnc(C(F)(F)F)s1)c1ccc(F)cc1",
    "group": "inactive"
  },
  {
    "molecule": "O=C(Nc1ccccc1)Nc1cnns1",
    "group": "inactive"
  },
  {
    "molecule": "CCCN(CCC)c1c([N+](=O)[O-])cc(C(F)(F)F)cc1[N+](=O)[O-]",
    "group": "inactive"
  },
  {
    "molecule": "O=[N+]([O-])/N=C1\\NCCN1Cc1ccc(Cl)nc1",
    "group": "inactive"
  },
  {
    "molecule": "CC[C@H](C)[C@H]1O[C@]2(C=C[C@@H]1C)C[C@@H]1C[C@@H](C/C=C(\\C)[C@@H](O[C@H]3C[C@H](OC)[C@@H](O[C@H]4C[C@H](OC)[C@@H](O)[C@H](C)O4)[C@H](C)O3)[C@@H](C)/C=C/C=C3\\CO[C@@H]4[C@H](O)C(C)=C[C@@H](C(=O)O1)[C@]34O)O2 (tested in a mixture with another compound)",
    "group": "active"
  },
  {
    "molecule": "Clc1ccccc1-c1nnc(-c2ccccc2Cl)nn1",
    "group": "inactive"
  }
]
